Provenance of the data: PubChem BioAssay (NCI)

test system: HCC-2998 colon; experiment: NCI tumour cell line growth inhibition, 48 h
PROPERTY_LABEL: TGI

Below, each entry is followed by its recorded TGI result.
>>> reported_measurement("CC1(C)COC(c2ccc(C(=O)c3ccc(Cl)cc3)cc2)=N1")
"> 100 µM"
>>> reported_measurement("CC(=O)N(C(C)=O)c1c(N)n(C)c(=O)[nH]c1=O")
"> 100 µM"
>>> reported_measurement("COC(=O)CCC1(C)C2CCC1/C(=N/O)C2 (stereo unspecified)")
"> 100 µM"
>>> reported_measurement("CC[C@H](C)[C@H](NC(=O)C12CC(NC)(C1)C2)C(=O)N(C)[C@H](C[C@@H](OC(C)=O)c1nc(C(=O)N[C@@H](Cc2ccccc2)C[C@H](C)C(=O)OC)cs1)C(C)C")
"> 25 µM"

# compound CCOC(=O)Oc1ccc(C(CNC(C)C)OC(=O)OCC)cc1OC(=O)OCC (stereo unspecified) ; its TGI = > 100 µM

# compound CC(=O)Oc1c(C)cc2c(c1C)C(C)CN2C(C)=O (stereo unspecified) ; its TGI = > 100 µM

# compound CCOC(=O)/C=C(\C)Sc1cc(O)c2ccccc2c1O ; its TGI = 28.1 µM

# compound O=C(C(Cl)Cl)N(O)c1ccccc1OCc1ccccc1 ; its TGI = 6.89 µM

# compound COc1ccc(-n2cnc3c(N)nc(N)nc32)cc1 ; its TGI = > 100 µM

# compound c1ccc(CNc2ccc3[nH]c4cnccc4c3c2)cc1 ; its TGI = 33.2 µM

# compound CCCC(=O)OCC(COC(=O)CCC)OC(=O)CCC ; its TGI = > 100 µM
